Catalogue of Papp B→A readings, one per entry.
PROCEDURE TEXT: Apparent permeability across basolateral to apical side in human Caco2 cells
Type: ADME, cell-based
STATED CONDITIONS: Caco-2

The cases that follow already have their Papp B→A on record.
test_smiles=N=C(N)SCc1cccc2cc3cccc(CSC(=N)N)c3nc12 result="0.5 ×10⁻⁶ cm/s"
test_smiles=Br.N=C(N)SCc1cccc2c1oc1c(CSC(=N)N)cccc12 result="0.2 ×10⁻⁶ cm/s"
test_smiles=Br.CS(=O)(=O)c1ccc(Sc2ccc(F)cc2CSC(=N)N)c(CSC(=N)N)c1 result="0.1 ×10⁻⁶ cm/s"
test_smiles=Br.N=C(N)SCc1ccccc1Sc1ccccc1CSC(=N)N result="1.4 ×10⁻⁶ cm/s"
test_smiles=Br.N=C(N)SCc1ccccc1C(=O)c1cc([N+](=O)[O-])ccc1CSC(=N)N result="0.7 ×10⁻⁶ cm/s"
test_smiles=Br.N=C(N)SCc1cccc2c1sc1c(CSC(=N)N)c(Br)ccc12 result="0.2 ×10⁻⁶ cm/s"

Exam item: Data request, read-out Papp B→A, for Br.N=C(N)SCc1cccc2c1-c1c(CSC(=N)N)cccc1-2
Marked response: 0.4 ×10⁻⁶ cm/s

Exam item: Another compound: Br.N=C(N)SCc1cc(F)ccc1Sc1ccc(C(F)(F)F)cc1CSC(=N)N
Marked response: 3.8 ×10⁻⁶ cm/s

Exam item: Another compound: Br.N=C(N)SCc1ccccc1Sc1ccc(F)cc1CSC(=N)N
Marked response: 0.2 ×10⁻⁶ cm/s

###

STUDY TARGET: Natural resistance-associated macrophage protein 1 (Homo sapiens, UniProt P49279)
Sequence (P49279 whole entry): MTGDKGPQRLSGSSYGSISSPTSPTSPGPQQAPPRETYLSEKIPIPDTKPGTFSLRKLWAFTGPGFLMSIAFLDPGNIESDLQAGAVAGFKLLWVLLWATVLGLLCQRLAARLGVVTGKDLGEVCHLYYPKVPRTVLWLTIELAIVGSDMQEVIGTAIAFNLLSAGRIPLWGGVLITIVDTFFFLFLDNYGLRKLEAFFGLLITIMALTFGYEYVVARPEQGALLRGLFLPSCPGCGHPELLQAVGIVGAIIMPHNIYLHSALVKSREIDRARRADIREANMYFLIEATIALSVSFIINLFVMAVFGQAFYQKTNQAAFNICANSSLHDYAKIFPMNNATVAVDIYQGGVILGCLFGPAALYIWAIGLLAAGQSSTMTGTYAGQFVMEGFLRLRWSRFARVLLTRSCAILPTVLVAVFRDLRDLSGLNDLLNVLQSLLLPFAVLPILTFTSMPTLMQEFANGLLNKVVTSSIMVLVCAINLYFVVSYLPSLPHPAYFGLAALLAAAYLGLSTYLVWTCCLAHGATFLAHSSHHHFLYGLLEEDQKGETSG
PROCEDURE TEXT: Inhibition of NRAMP1 expressed in CHO cells
pIC50: −log10 of the molar value.
Catalogue of pIC50 readings, one per entry.

The cases that follow already have their pIC50 on record.
test_smiles=N=C(N)SCc1cc(F)ccc1Sc1c(CSC(=N)N)cccc1[N+](=O)[O-] attribute_measured=pIC50 result="< 5.00"
test_smiles=Br.CN(C)S(=O)(=O)c1ccc(Sc2ccc(F)cc2CSC(=N)N)c(CSC(=N)N)c1 attribute_measured=pIC50 result="< 5.00"
test_smiles=N=C(N)SCc1ccccc1C(=O)c1cc(F)ccc1CSC(=N)N attribute_measured=pIC50 result="< 5.00"
test_smiles=Br.N=C(N)SCc1cc(F)cc2c1sc1c(CSC(=N)N)cc(Cl)cc12 attribute_measured=pIC50 result="< 5.00"
test_smiles=Br.N=C(N)SCc1cccc2c1sc1c(CSC(=N)N)c(Br)ccc12 attribute_measured=pIC50 result="< 5.00"
test_smiles=N=C(N)SCc1ccccc1C(=O)c1ccc(F)cc1CSC(=N)N attribute_measured=pIC50 result="< 5.00"

Exam item: Data request, read-out pIC50, for Br.N=C(N)SCc1cc(F)ccc1Sc1cc(F)c(F)cc1CSC(=N)N
Marked response: < 5.00

Exam item: Another molecule: CN(c1ccccc1CSC(=N)N)c1ccccc1CSC(=N)N
Marked response: < 5.00

Exam item: Another molecule: N=C(N)SCc1cccc2sc3cccc(CSC(=N)N)c3c12
Marked response: < 5.00

Exam item: Another molecule: COc1ccc(Sc2ccccc2CSC(=N)N)c(CSC(=N)N)c1
Marked response: < 5.00

Exam item: Another molecule: Br.Cc1ccc(Sc2ccccc2CSC(=N)N)c(CSC(=N)N)c1
Marked response: < 5.00

###

PROCEDURE TEXT: Apparent permeability across apical to basolateral side in human Caco2 cells
Assay type: ADME, cell-based
STATED CONDITIONS: Caco-2
Catalogue of Papp A→B readings, one per entry.

The cases that follow already have their Papp A→B on record.
test_smiles=Br.N=C(N)SCc1cc(F)ccc1Oc1cc(Cl)ccc1CSC(=N)N result="0.2 ×10⁻⁶ cm/s"
test_smiles=Br.N=C(N)SCc1ccccc1Sc1cc(F)ccc1CSC(=N)N result="0.3 ×10⁻⁶ cm/s"
test_smiles=Br.N=C(N)SCc1c(Cl)ccc2c1oc1c(CSC(=N)N)c(Cl)ccc12 result="< 0.1 ×10⁻⁶ cm/s"

Exam item: Data request, read-out Papp A→B, for Br.N=C(N)SCc1ccccc1C(=O)c1cc([N+](=O)[O-])ccc1CSC(=N)N
Marked response: 0.1 ×10⁻⁶ cm/s

Exam item: Another compound: Br.N=C(N)SCc1cccc2c1oc1c(CSC(=N)N)cccc12
Marked response: < 0.1 ×10⁻⁶ cm/s

Exam item: Another compound: Br.N=C(N)SCc1cccc2c1sc1c(CSC(=N)N)cccc12
Marked response: < 0.1 ×10⁻⁶ cm/s

Exam item: Another compound: Br.N=C(N)SCc1cc(F)ccc1Oc1ccc(F)cc1CSC(=N)N
Marked response: < 0.1 ×10⁻⁶ cm/s

Exam item: Another compound: Br.N=C(N)SCc1c(F)ccc2c1oc1c(CSC(=N)N)c(F)ccc12
Marked response: 5 ×10⁻⁶ cm/s

Exam item: Another compound: Br.N=C(N)SCc1ccccc1Sc1ccccc1CSC(=N)N
Marked response: 0.1 ×10⁻⁶ cm/s

Exam item: Another compound: Br.Cc1ccc(Sc2ccccc2CSC(=N)N)c(CSC(=N)N)c1
Marked response: 1.5 ×10⁻⁶ cm/s

Exam item: Another compound: Br.N=C(N)SCc1ccccc1Oc1ccccc1CSC(=N)N
Marked response: 0.1 ×10⁻⁶ cm/s

###

PROCEDURE TEXT: Apparent permeability across basolateral to apical side in human Caco2 cells
Type: ADME, cell-based
STATED CONDITIONS: Caco-2
ATTRIBUTE MEASURED: Papp B→A (×10⁻⁶ cm/s)
Expressed in ×10⁻⁶ cm/s, but write only the number.

The cases that follow already have their Papp B→A on record.
test_smiles=Br.N=C(N)SCc1cc(F)ccc1Oc1cc(Cl)ccc1CSC(=N)N attribute_measured="Papp B→A" numeric_result=0.9
test_smiles=Br.N=C(N)SCc1cc(F)ccc1Oc1cc(F)ccc1CSC(=N)N attribute_measured="Papp B→A" numeric_result=0.4
test_smiles=Cc1cc(C)c(CSC(=N)N)c(C)c1CSC(=N)N attribute_measured="Papp B→A" numeric_result=1.2
test_smiles=Br.N=C(N)SCc1c(Cl)ccc2c1oc1c(CSC(=N)N)c(Cl)ccc12 attribute_measured="Papp B→A" numeric_result=0.4

Exam item: Data request, read-out Papp B→A, for Br.N=C(N)SCc1c(Br)ccc2c1sc1c(CSC(=N)N)c(Br)ccc12
Marked response: 2

Exam item: Another compound: Br.Cc1ccc(Sc2ccccc2CSC(=N)N)c(CSC(=N)N)c1
Marked response: 1.4

Exam item: Another compound: Br.N=C(N)SCc1ccccc1Sc1cc(F)ccc1CSC(=N)N
Marked response: 0.2

Exam item: Another compound: Br.N=C(N)SCc1ccccc1Sc1cc(F)c(F)cc1CSC(=N)N
Marked response: 1.4

Exam item: Another compound: Br.N=C(N)SCc1cc(F)ccc1Sc1ccc(F)cc1CSC(=N)N
Marked response: 0.4

Exam item: Another compound: Br.N=C(N)SCc1cc(F)ccc1Sc1cc(F)c(F)cc1CSC(=N)N
Marked response: 0.2

###

PROCEDURE TEXT: Apparent permeability across apical to basolateral side in human Caco2 cells
Assay type: ADME, cell-based
STATED CONDITIONS: Caco-2
ATTRIBUTE MEASURED: Papp A→B (×10⁻⁶ cm/s)
Expressed in ×10⁻⁶ cm/s, but write only the number.

test_smiles=Br.N=C(N)SCc1c(Br)ccc2c1oc1c(CSC(=N)N)c(Br)ccc12 numeric_result=0.2
test_smiles=Br.N=C(N)SCc1cc(F)ccc1Sc1ccc([N+](=O)[O-])cc1CSC(=N)N numeric_result=0.1
test_smiles=Br.N=C(N)SCc1c(Br)ccc2c1sc1c(CSC(=N)N)c(Br)ccc12 numeric_result=4
test_smiles=Br.N=C(N)SCc1ccccc1Sc1ccc(F)cc1CSC(=N)N numeric_result=0.3
test_smiles=Br.N=C(N)SCc1cccc2c1C(=O)c1c(CSC(=N)N)cccc1-2 numeric_result=0.4
test_smiles=Br.N=C(N)SCc1ccccc1Sc1cc(F)c(F)cc1CSC(=N)N numeric_result=1.3

Exam item: Data request, read-out Papp A→B, for Cc1cc(C)c(CSC(=N)N)c(C)c1CSC(=N)N
Marked response: 0.9
